- assayedSystem: HLA-E (Homo sapiens)
- Construct: expressed in transfected cells; host or cells: RMA-S/HLA-E cells (antigen processing-defective lymphoma cell line)
- measurementProtocol: HLA-E surface stabilization assay with RMA-S/HLA-E cells
- Type: cell-based
- details: 30 μM peptide, 16 hours, anti-HLA-E antibody, Trial 3
Where no end group is shown, it is not given here.
measurementLabel: HLA-E surface expression stability (GeoMFI)
Supply the numeric figure in GeoMFI, leaving out any unit text.

Fill blank: measured HLA-E surface expression stability (GeoMFI) of the sequence NMPARTVLF [human14, peptide MTREX 490-498 derived from the human proteome] is ____.
1005

Fill blank: measured HLA-E surface expression stability (GeoMFI) of the sequence TAPARTMFL [human13, TAPARTMFL] is ____.
673

Fill blank: measured HLA-E surface expression stability (GeoMFI) of the sequence VNPGRSLFL [human5, VNPGRSLFL] is ____.
566

Fill blank: measured HLA-E surface expression stability (GeoMFI) of the sequence QMPSRSLLF [human1, QMPSRSLLF] is ____.
2273

Fill blank: measured HLA-E surface expression stability (GeoMFI) of the sequence VMPGRTLCF [human11, peptide TACR3 226-234 derived from the human proteome] is ____.
3432

Fill blank: measured HLA-E surface expression stability (GeoMFI) of the sequence VMPPRTLLL [human15, peptide HLA-A 3-11 derived from the human proteome] is ____.
4205

---

- System: NKG2A−/NKG2C− NK cells
- measurementProtocol: NK cell activation markers in control NKG2A-/NKG2C- NK cells incubated with peptide and K562 expressing HLA-E
- Assay type: cell-based, human
- details: Trial 1
- Description: A human immortalized myelogenous leukemia cell line (K562), which expresses HLA-E was incubated with novel peptides (Table 1) derived from the human proteome or human cytomegalovirus proteome. […] Controls assessments were also performed using NKG2A−/NKG2C− cells (Tables 10-13). Inhibition was indicated by a decrease in percent cells positive for cell surface markers, while activation was indicated by an increase in percent cells positive for cell surface markers.
Where no end group is shown, it is not given here.
measurementLabel: percentage CCL3+ NK cells (%)
Supply the numeric figure in %, leaving out any unit text.

Fill blank: measured percentage CCL3+ NK cells of the sequence ILTDRSLWL [human4, peptide FBXO41 670-678 derived from the human proteome] is ____.
37.2

Fill blank: measured percentage CCL3+ NK cells of the sequence TAPARTMFL [human13, TAPARTMFL] is ____.
37.2

---

- Test system: NKG2A−/NKG2C− NK cells
- measurementProtocol: NK cell activation markers in control NKG2A-/NKG2C- NK cells incubated with peptide and K562 expressing HLA-E
- Format: cell-based, human
- details: Trial 4
- Procedure: A human immortalized myelogenous leukemia cell line (K562), which expresses HLA-E was incubated with novel peptides (Table 1) derived from the human proteome or human cytomegalovirus proteome. […] Controls assessments were also performed using NKG2A−/NKG2C− cells (Tables 10-13). Inhibition was indicated by a decrease in percent cells positive for cell surface markers, while activation was indicated by an increase in percent cells positive for cell surface markers.
Where no end group is shown, it is not given here.
Overview of reported percentage CCL3+ NK cells across a group of sequences:
The reply must contain the numeric value and, after it, the unit.

sequenceRecord	measured
TAPARTMFL [human13, TAPARTMFL]	37.7%
VMPGRTLCF [human11, peptide TACR3 226-234 derived from the human proteome]	30.9%
TLPKRGLFL [human2, TLPKRGLFL]	34.8%
VLPHRTQFL [CMV1, novel CMV-derived peptide UL120 72-80, Merlin]	27.2%
TGPWRSLWI [human3, TGPWRSLWI]	36.6%

Fill blank: measured percentage CCL3+ NK cells of the sequence VNPGRSLFL [human5, VNPGRSLFL] is ____.
30.6%

---

- assayedSystem: HLA-E (Homo sapiens, UniProt P13747)
- Construct: expressed in transfected cells; host or cells: RMA-S/HLA-E cells (antigen processing-defective lymphoma cell line)
- Sequence (P13747 22-358): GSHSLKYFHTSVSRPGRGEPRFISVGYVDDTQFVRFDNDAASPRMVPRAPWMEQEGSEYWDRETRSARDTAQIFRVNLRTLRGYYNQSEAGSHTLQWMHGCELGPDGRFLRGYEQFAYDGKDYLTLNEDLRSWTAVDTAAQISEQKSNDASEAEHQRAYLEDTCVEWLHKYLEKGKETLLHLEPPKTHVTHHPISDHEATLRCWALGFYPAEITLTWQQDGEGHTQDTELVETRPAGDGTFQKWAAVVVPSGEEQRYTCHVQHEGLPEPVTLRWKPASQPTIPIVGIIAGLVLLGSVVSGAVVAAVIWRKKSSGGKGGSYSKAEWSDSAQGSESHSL
- Sequence (P61769 21-119 partner): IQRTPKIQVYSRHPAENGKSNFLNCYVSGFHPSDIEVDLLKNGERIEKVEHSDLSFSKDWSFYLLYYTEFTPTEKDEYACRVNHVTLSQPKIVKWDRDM
- measurementProtocol: HLA-E surface stabilization assay with RMA-S/HLA-E cells
- Type: cell-based
- details: 30 μM peptide, 16 hours, anti-HLA-E antibody, Trial 1
- Method: HLA-E surface expression was assessed by measuring geometric mean fluorescence intensity (GeoMFI) in RMA-S cells following immunofluorescence staining with an anti-HLA-E antibody (Table 14). Increased GeoMFI was indicative of increased HLA-E surface expression stability following novel peptide exposures (FIG. 3).
Where no end group is shown, it is not given here.
measurementLabel: HLA-E surface expression stability (GeoMFI)
Supply the numeric figure in GeoMFI, leaving out any unit text.

Examples with their reported HLA-E surface expression stability (GeoMFI) follow.
sequenceRecord	unitText	measured
FLPNRSLLF [human8, peptide SLC52A3 354-362 derived from the human proteome]	GeoMFI	1066
QMPSRSLLF [human1, QMPSRSLLF]	GeoMFI	2461

Request: HLA-E surface expression stability (GeoMFI), test system HLA-E (Homo sapiens, UniProt P13747), entry NMPARTVLF [human14, peptide MTREX 490-498 derived from the human proteome]
1304

---

Overview of reported percentage TNF+ NK cells across a group of sequences:
- System: NKG2A−/NKG2C− NK cells
- measurementProtocol: NK cell activation markers in control NKG2A-/NKG2C- NK cells incubated with peptide and K562 expressing HLA-E
- Assay type: cell-based, human
- details: Trial 5
Where no end group is shown, it is not given here.
Supply the numeric figure in %, leaving out any unit text.

sequenceRecord	measured
VMPPRTLLL [human15, peptide HLA-A 3-11 derived from the human proteome]	6.97

Fill blank: measured percentage TNF+ NK cells of the sequence ILTDRSLWL [human4, peptide FBXO41 670-678 derived from the human proteome] is ____.
5.02

Fill blank: measured percentage TNF+ NK cells of the sequence VLPHRTQFL [CMV1, novel CMV-derived peptide UL120 72-80, Merlin] is ____.
6.68

Fill blank: measured percentage TNF+ NK cells of the sequence TLPERTLYL [human7, peptide ECEL1 269-277 derived from the human proteome] is ____.
5.21

Fill blank: measured percentage TNF+ NK cells of the sequence FLPNRSLLF [human8, peptide SLC52A3 354-362 derived from the human proteome] is ____.
6.07

Fill blank: measured percentage TNF+ NK cells of the sequence VMAPQSLLL [VMAPQSLLL (PQS), negative control peptide, reference compound] is ____.
8.67

Fill blank: measured percentage TNF+ NK cells of the sequence TGPWRSLWI [human3, TGPWRSLWI] is ____.
8.06

Fill blank: measured percentage TNF+ NK cells of the sequence TLPKRGLFL [human2, TLPKRGLFL] is ____.
6.52

Fill blank: measured percentage TNF+ NK cells of the sequence QMPSRSLLF [human1, QMPSRSLLF] is ____.
6.91

Fill blank: measured percentage TNF+ NK cells of the sequence VNPGRSLFL [human5, VNPGRSLFL] is ____.
6.08

---

Overview of reported percentage of IFNG+ NK cells across a group of sequences:
- System: NKG2A−/NKG2C− NK cells
- measurementProtocol: NK cell activation markers in control NKG2A-/NKG2C- NK cells incubated with peptide and K562 expressing HLA-E
- Format: cell-based, human
- details: Trial 3
Where no end group is shown, it is not given here.
Supply the numeric figure in %, leaving out any unit text.

Examples with their reported percentage of IFNG+ NK cells follow.
sequenceRecord	assayedSystem	unitText	percentage of IFNG+ NK cells
QMPSRSLLF [human1, QMPSRSLLF]	NKG2A−/NKG2C− NK cells	%	38.5
TGPWRSLWI [human3, TGPWRSLWI]	NKG2A−/NKG2C− NK cells	%	44
VNPGRSLFL [human5, VNPGRSLFL]	NKG2A−/NKG2C− NK cells	%	41.4
TLPERTLYL [human7, peptide ECEL1 269-277 derived from the human proteome]	NKG2A−/NKG2C− NK cells	%	34.9
TAPARTMFL [human13, TAPARTMFL]	NKG2A−/NKG2C− NK cells	%	49.4

Switching to the query record.
Request: percentage of IFNG+ NK cells, test system NKG2A−/NKG2C− NK cells, entry VLPHRTQFL [CMV1, novel CMV-derived peptide UL120 72-80, Merlin]
36.7

---

- assayedSystem: CD94/NKG2A (Homo sapiens, UniProt P26715+Q13241)
- Sequence (P26715 94-233 limits assumed): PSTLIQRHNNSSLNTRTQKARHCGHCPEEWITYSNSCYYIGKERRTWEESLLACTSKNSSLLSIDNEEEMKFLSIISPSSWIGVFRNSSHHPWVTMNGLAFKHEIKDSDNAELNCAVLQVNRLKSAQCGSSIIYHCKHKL
- Sequence (Q13241 32-179 limits assumed): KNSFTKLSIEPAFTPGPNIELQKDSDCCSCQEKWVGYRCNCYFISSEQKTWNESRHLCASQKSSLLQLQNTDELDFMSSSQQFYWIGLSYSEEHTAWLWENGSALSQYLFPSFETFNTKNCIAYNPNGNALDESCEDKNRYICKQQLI
- measurementProtocol: Steady-state surface plasmon resonance of peptide-HLA-E complex with CD94/NKG2A
- Format: binding
- details: CD94/NKG2A concentration 51.2 μM
Where no end group is shown, it is not given here.
Overview of reported binding of peptide-HLA-E complex to CD94/NKG2A normalized to a fitted Rmax across a group of sequences:
No unit in the answer, please; the number alone is enough.

Examples with their reported binding of peptide-HLA-E complex to CD94/NKG2A normalized to a fitted Rmax follow.
sequenceRecord	measured
QMPSRSLLF [human1, QMPSRSLLF]	0.950
TLPKRGLFL [human2, TLPKRGLFL]	0.942
VNPGRSLFL [human5, VNPGRSLFL]	1.081

Fill blank: measured binding of peptide-HLA-E complex to CD94/NKG2A normalized to a fitted Rmax of the sequence TGPWRSLWI [human3, TGPWRSLWI] is ____.
0.639

Fill blank: measured binding of peptide-HLA-E complex to CD94/NKG2A normalized to a fitted Rmax of the sequence TAPARTMFL [human13, TAPARTMFL] is ____.
0.819
